Provide the reported IC50 of each item.
targetSystem: histone deacetylase 6 (HDAC6) (Homo sapiens)
Sequence (Q9UBN7 1-1215): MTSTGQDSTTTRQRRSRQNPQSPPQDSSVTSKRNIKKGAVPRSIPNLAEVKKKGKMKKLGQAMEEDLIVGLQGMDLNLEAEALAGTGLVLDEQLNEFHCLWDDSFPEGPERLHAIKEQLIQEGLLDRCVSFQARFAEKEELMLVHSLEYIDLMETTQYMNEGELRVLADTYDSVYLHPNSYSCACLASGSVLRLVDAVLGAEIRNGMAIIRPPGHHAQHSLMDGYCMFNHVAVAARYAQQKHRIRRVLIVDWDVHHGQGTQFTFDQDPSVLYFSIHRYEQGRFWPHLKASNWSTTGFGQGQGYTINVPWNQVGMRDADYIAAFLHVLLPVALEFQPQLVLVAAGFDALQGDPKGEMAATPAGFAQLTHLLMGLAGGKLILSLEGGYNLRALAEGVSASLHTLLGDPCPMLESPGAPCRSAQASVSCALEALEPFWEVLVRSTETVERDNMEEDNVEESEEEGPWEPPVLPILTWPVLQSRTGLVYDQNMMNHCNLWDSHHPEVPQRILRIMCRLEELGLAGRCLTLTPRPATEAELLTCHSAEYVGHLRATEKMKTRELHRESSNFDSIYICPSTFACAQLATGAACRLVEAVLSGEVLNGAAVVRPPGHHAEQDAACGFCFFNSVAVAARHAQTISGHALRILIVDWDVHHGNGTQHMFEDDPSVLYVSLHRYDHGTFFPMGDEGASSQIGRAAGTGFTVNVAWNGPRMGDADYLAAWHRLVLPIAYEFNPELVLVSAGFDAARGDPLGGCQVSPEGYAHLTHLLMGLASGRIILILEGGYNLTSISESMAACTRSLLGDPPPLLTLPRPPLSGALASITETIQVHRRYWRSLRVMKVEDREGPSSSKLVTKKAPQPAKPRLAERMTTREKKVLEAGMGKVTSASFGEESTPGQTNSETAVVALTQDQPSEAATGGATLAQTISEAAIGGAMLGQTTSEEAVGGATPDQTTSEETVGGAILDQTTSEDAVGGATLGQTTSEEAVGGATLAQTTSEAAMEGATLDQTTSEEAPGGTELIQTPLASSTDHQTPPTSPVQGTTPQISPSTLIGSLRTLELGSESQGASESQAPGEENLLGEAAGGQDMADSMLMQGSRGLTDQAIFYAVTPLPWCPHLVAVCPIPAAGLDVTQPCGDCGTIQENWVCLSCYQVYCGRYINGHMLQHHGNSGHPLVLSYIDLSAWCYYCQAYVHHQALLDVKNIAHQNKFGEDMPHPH

Enquiry: Report value: IC50, system: histone deacetylase 6 (HDAC6) (Homo sapiens), compound: `COc1cccc(S(=O)(=O)N2CC=C(C(=O)NO)C2)c1`
Return: < 100 nM

Enquiry: Report value: IC50, system: histone deacetylase 6 (HDAC6) (Homo sapiens), compound: `CNC(=O)c1ccc(S(=O)(=O)N2CC=C(C(=O)NO)C2)cc1`
Return: < 100 nM

Enquiry: Report value: IC50, system: histone deacetylase 6 (HDAC6) (Homo sapiens), compound: `Cc1cccc(S(=O)(=O)N2CC=C(C(=O)NO)C2)c1`
Return: < 100 nM

Enquiry: Report value: IC50, system: histone deacetylase 6 (HDAC6) (Homo sapiens), compound: `CC(C)(C)c1ccc(S(=O)(=O)N2CC=C(C(=O)NO)C2)cc1`
Return: < 100 nM

Enquiry: Report value: IC50, system: histone deacetylase 6 (HDAC6) (Homo sapiens), compound: `O=C(NO)C1=CCN(S(=O)(=O)c2cccc(F)c2)C1`
Return: < 100 nM

Enquiry: Report value: IC50, system: histone deacetylase 6 (HDAC6) (Homo sapiens), compound: `O=C(NO)C1=CCN(S(=O)(=O)c2ccc(C3=CCNCC3)cc2)C1`
Return: 100 to 300 nM

Enquiry: Report value: IC50, system: histone deacetylase 6 (HDAC6) (Homo sapiens), compound: `O=C(NO)C1=CCN(S(=O)(=O)c2ccc(C(=O)O)cc2)C1`
Return: < 100 nM

Enquiry: Report value: IC50, system: histone deacetylase 6 (HDAC6) (Homo sapiens), compound: `N#Cc1ccc(S(=O)(=O)N2CC=C(C(=O)NO)C2)cc1`
Return: 100 to 300 nM

Enquiry: Report value: IC50, system: histone deacetylase 6 (HDAC6) (Homo sapiens), compound: `CC(=O)Nc1ccc(S(=O)(=O)N2CC=C(C(=O)NO)C2)cc1Cl`
Return: < 100 nM

Enquiry: Report value: IC50, system: histone deacetylase 6 (HDAC6) (Homo sapiens), compound: `COc1ccc(S(=O)(=O)N2CC=C(C(=O)NO)C2)cc1OC`
Return: 100 to 300 nM

Enquiry: Report value: IC50, system: histone deacetylase 6 (HDAC6) (Homo sapiens), compound: `O=C(NO)C1=CCN(S(=O)(=O)c2ccc3c(c2)OCCO3)C1`
Return: < 100 nM

Enquiry: Report value: IC50, system: histone deacetylase 6 (HDAC6) (Homo sapiens), compound: `O=C(NO)C1=CCN(S(=O)(=O)c2ccc(Oc3ccccc3)cc2)C1`
Return: 100 to 300 nM

Enquiry: Report value: IC50, system: histone deacetylase 6 (HDAC6) (Homo sapiens), compound: `O=C(NO)C1=CCN(S(=O)(=O)c2ccc3c(c2)OCC3)C1`
Return: < 100 nM

Enquiry: Report value: IC50, system: histone deacetylase 6 (HDAC6) (Homo sapiens), compound: `Nc1ccccc1NC(=O)C1=CCN(S(=O)(=O)c2ccccc2)C1`
Return: > 500 nM

---

System: Li7 cells
testName: Determination of cell growth inhibition, CCK-8, Li-7
Assay type: cell-based
experimentalContext: Li-7 hepatoma cells, 72 hours, highest measured IC50 of single or multiple operations
pIC50: −log10 of the molar value.
observedProperty: pIC50

Enquiry: Please give measured pIC50 of the following entry: O=C(NO)C1=CCN(S(=O)(=O)c2ccc(Oc3ccccc3)cc2)C1 [Compound 3]
Return: < 5.00

Enquiry: Please give measured pIC50 of the following entry: CC(=O)Nc1ccc(S(=O)(=O)N2CC=C(C(=O)NO)C2)cc1 [Compound 10]
Return: < 5.00

Enquiry: Please give measured pIC50 of the following entry: COc1cccc(S(=O)(=O)N2CC=C(C(=O)NO)C2)c1 [Compound 14]
Return: > 5.00

Enquiry: Please give measured pIC50 of the following entry: Nc1ccccc1NC(=O)C1=CCN(S(=O)(=O)c2ccccc2)C1 [Compound 19]
Return: < 5.00

Enquiry: Please give measured pIC50 of the following entry: O=C(NO)C1=CCN(S(=O)(=O)c2ccc(C(=O)O)cc2)C1 [Compound 7]
Return: < 5.00

Enquiry: Please give measured pIC50 of the following entry: COc1ccc(S(=O)(=O)N2CC=C(C(=O)NO)C2)cc1 [Compound 13]
Return: > 5.00

Enquiry: Please give measured pIC50 of the following entry: O=C(NO)C1=CCN(S(=O)(=O)c2cccc(F)c2)C1 [Compound 12]
Return: < 5.00

Enquiry: Please give measured pIC50 of the following entry: CC(=O)Nc1ccc(S(=O)(=O)N2CC=C(C(=O)NO)C2)cc1Cl [Compound 4]
Return: < 5.00

Enquiry: Please give measured pIC50 of the following entry: O=C(NO)C1=CCN(S(=O)(=O)c2ccc(C3=CCNCC3)cc2)C1 [Compound 18]
Return: < 5.00

---

Recorded below: pIC50, system histone deacetylase 3 (HDAC3) (Homo sapiens, UniProt O15379).
pIC50: −log10 of the molar value.

Enquiry: Please give measured pIC50 of the following entry: `O=C(NO)C1=CCN(S(=O)(=O)c2ccc3c(c2)OCCO3)C1`
Return: < 6.00

Enquiry: Please give measured pIC50 of the following entry: `CC(C)(C)c1ccc(S(=O)(=O)N2CC=C(C(=O)NO)C2)cc1`
Return: 6.00 to 7.00

Enquiry: Please give measured pIC50 of the following entry: `O=C(NO)C1=CCN(S(=O)(=O)c2ccc(Oc3ccccc3)cc2)C1`
Return: 6.00 to 7.00

Enquiry: Please give measured pIC50 of the following entry: `O=C(NO)C1=CCN(S(=O)(=O)c2ccccc2)C1`
Return: < 6.00

Enquiry: Please give measured pIC50 of the following entry: `CC(=O)Nc1ccc(S(=O)(=O)N2CC=C(C(=O)NO)C2)cc1Cl`
Return: 6.00 to 7.00

Enquiry: Please give measured pIC50 of the following entry: `O=C(NO)C1=CCN(S(=O)(=O)c2ccc3c(c2)OCC3)C1`
Return: 6.00 to 7.00

---

Provide the reported pIC50 of each item.
System: Li7 cells
testName: Determination of cell growth inhibition, CCK-8, Li-7
Assay type: cell-based
experimentalContext: Li-7 hepatoma cells, 72 hours, highest measured IC50 of single or multiple operations
pIC50: −log10 of the molar value.

Enquiry: Please give measured pIC50 of the following entry: `CC(C)(C)c1ccc(S(=O)(=O)N2CC=C(C(=O)NO)C2)cc1`
Return: < 5.00

Enquiry: Please give measured pIC50 of the following entry: `COc1ccc(S(=O)(=O)N2CC=C(C(=O)NO)C2)cc1OC`
Return: < 5.00

Enquiry: Please give measured pIC50 of the following entry: `CNC(=O)c1ccc(S(=O)(=O)N2CC=C(C(=O)NO)C2)cc1`
Return: < 5.00

Enquiry: Please give measured pIC50 of the following entry: `Cc1ccc(S(=O)(=O)N2CC=C(C(=O)NO)C2)cc1`
Return: > 5.00

Enquiry: Please give measured pIC50 of the following entry: `O=C(NO)C1=CCN(S(=O)(=O)c2ccc3c(c2)OCCO3)C1`
Return: < 5.00

Cited source: patent US10266489B2
